# experiment notes: qHTS assay to identify small molecule that activate the aryl hydrocarbon receptor (AhR) signaling pathway - cell viability counter screen (AID 743086);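 also: HepG2 liver cells carrying the AhR DRE luciferase reporter; % is scaled to controls: 0 for no effect and ±100 for the full control effect; nearly all actives have a fitted effect of over 45% in size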
# setup conditions: HepG2-AhR-luc viability, CellTiter-Fluor, 24 h; series mostly up to 70.3 µM
Results filed as inconclusive are left out. Calls of active or inactive are those of the source. Calls follow the shape of the dose curve; as a rule, active = well fitted cell-killing curve with a large enough effect in the repeat runs; inconclusive = weak or mixed curves, or effect the other way; inactive = flat fitted curve, though single readings scatter.

>  <molecule>
OC1OC[C@@H](O)[C@H](O)[C@H]1O (some centres undefined)

>  <outcome>
inactive

$$$$
>  <molecule>
CC(C)CCCCCCN

>  <outcome>
inactive

$$$$
>  <molecule>
OCc1ccccn1

>  <outcome>
inactive

$$$$
>  <molecule>
CCC(=O)c1cccc(Cl)c1

>  <outcome>
inactive

$$$$

----------
# experiment notes: qHTS assay for small molecule activators of the heat shock response signaling pathway - cell viability counter screen (AID 743209); also: % is scaled to controls: 0 for no effect and ±100 for the full control effect; nearly all actives have a fitted effect of over 50% in size
# setup conditions: HSE-bla HeLa viability, CellTiter-Glo luminescence, 5 h; series mostly up to 62.6 µM
Results filed as inconclusive are left out. Active and inactive are the calls of the source. Calls come from the whole dose curve; as a rule, active = well fitted cell-killing curve with a large enough effect in the repeat runs; inconclusive = weak or mixed curves, or effect the other way; inactive = no such curve, though single readings can be large or run the other way.

>  <compound>
COc1ccc2cc(C=O)ccc2c1

>  <activity change, negative = cytotoxicity>
inactive

$$$$
>  <compound>
NC(=S)Nc1cccc2ccccc12

>  <activity change, negative = cytotoxicity>
-5.69% [at 5.95 µM] (inactive)

$$$$
>  <compound>
CC(C)c1cccc(O)c1

>  <activity change, negative = cytotoxicity>
inactive

$$$$
>  <compound>
Cc1ccc(Nc2ccc(O)c3c2C(=O)c2ccccc2C3=O)cc1

>  <activity change, negative = cytotoxicity>
inactive

$$$$
>  <compound>
C=C(C)C(=O)NCCCN(C)C

>  <activity change, negative = cytotoxicity>
inactive

$$$$
>  <compound>
COc1ccc(NC(C)=O)cc1

>  <activity change, negative = cytotoxicity>
inactive

$$$$
>  <compound>
Nc1ccn(C2CO[C@H](CO)O2)c(=O)n1 (stereo partly specified)

>  <activity change, negative = cytotoxicity>
inactive

$$$$
>  <compound>
CC(C)c1ccc2oc3nc(N)c(C(=O)O)cc3c(=O)c2c1

>  <activity change, negative = cytotoxicity>
inactive

$$$$
>  <compound>
COC(=O)CCCCCCCCC(=O)OC

>  <activity change, negative = cytotoxicity>
inactive

$$$$
>  <compound>
N#CCc1ccccc1[N+](=O)[O-]

>  <activity change, negative = cytotoxicity>
inactive

$$$$
>  <compound>
C#CC(C)(O)CC(C)C (stereo unspecified)

>  <activity change, negative = cytotoxicity>
inactive

$$$$
>  <compound>
CNC(=O)c1c(I)c(NC(=O)CCCCC(=O)Nc2c(I)c(C(=O)O)c(I)c(C(=O)NC)c2I)c(I)c(C(=O)O)c1I

>  <activity change, negative = cytotoxicity>
inactive

$$$$
>  <compound>
CN1[C@@H]2CC[C@H]1CC(NC(=O)n1c(=O)[nH]c3ccccc31)C2 (stereo partly specified)

>  <activity change, negative = cytotoxicity>
inactive

$$$$
>  <compound>
CCN1CCCC(OC(=O)C(c2ccccc2)c2ccccc2)C1 (stereo unspecified)

>  <activity change, negative = cytotoxicity>
inactive

$$$$
>  <compound>
CC(CCO)CCCC(C)(C)O (stereo unspecified)

>  <activity change, negative = cytotoxicity>
inactive

$$$$
>  <compound>
CC12CCC(CC1=O)C2(C)C (stereo unspecified)

>  <activity change, negative = cytotoxicity>
inactive

$$$$

----------
# experiment notes: qHTS assay for small molecules that induce genotoxicity in human embryonic kidney cells expressing luciferase-tagged ATAD5 (AID 651632); also: % is scaled to controls: 0 for no effect and ±100 for the full control effect; nearly all actives have a fitted effect of over 15% in size
# setup conditions: HEK293T ATAD5-luciferase induction, 16 h; series mostly up to 83.3 µM
Inconclusive results are not listed. Calls of active or inactive are those of the source. The call rests on the fitted dose curve; in most records, active means well fitted activation curve with a large enough effect in the repeat runs; inconclusive means weak or mixed curves; inactive means no such curve, though single readings can be large or run the other way.

>  <molecule>
C(=C(c1ccccc1)c1ccccc1)c1ccccc1

>  <outcome>
inactive

$$$$
>  <molecule>
CCCCCCCCCCCCCCC

>  <outcome>
inactive

$$$$
>  <molecule>
COC(=O)C1=C(C)NC(C)=C(C(=O)OCC(C)=O)C1c1ccccc1[N+](=O)[O-] (stereo not given)

>  <outcome>
inactive

$$$$
>  <molecule>
CC(C)[C@H](N)C(=O)OCCOCn1cnc2c(=O)[nH]c(N)nc21

>  <outcome>
inactive

$$$$
>  <molecule>
OC1OC[C@@H](O)[C@H](O)[C@H]1O (stereo not given in full)

>  <outcome>
inactive

$$$$
>  <molecule>
COC(=O)c1ccc(C(=O)OC)c(C(=O)OC)c1

>  <outcome>
inactive

$$$$
>  <molecule>
C[C@H]1O[C@@H](n2cc(F)c(=O)[nH]c2=O)[C@H](O)[C@@H]1O

>  <outcome>
inactive

$$$$
>  <molecule>
CCN(CC)S(=O)(=O)c1ccc(C(=O)O)cc1

>  <outcome>
inactive

$$$$
>  <molecule>
O=C(O)c1cccc(C(=O)O)n1

>  <outcome>
inactive

$$$$
>  <molecule>
CC(C)(O)Cc1ccccc1

>  <outcome>
inactive

$$$$
>  <molecule>
CC(C)(O)C(=O)c1ccc(OCCO)cc1

>  <outcome>
inactive

$$$$
>  <molecule>
N#CC1(O)CCCCC1

>  <outcome>
inactive

$$$$
>  <molecule>
COC(=O)CCCC(=O)O

>  <outcome>
inactive

$$$$
>  <molecule>
Cc1ncc(CSSCc2cnc(C)c(O)c2CO)c(CO)c1O

>  <outcome>
inactive

$$$$
>  <molecule>
CC1(C)SC(C)(C)SC(C)(C)S1

>  <outcome>
inactive

$$$$
